# Procedure text: Phase 1 part 1 single ascending dose: pharmacokinetics
# Format: in vivo, human
# Condition set: male, human, plasma, oral; single 200 mg, fasted; read-out: Tmax, median and range
# Description: A 4-part, Phase 1 randomized, double-blind, placebo-controlled, first-in-human study was performed to determine the safety, tolerability, PK, and PD of single ascending doses (SADs; part 1) and multiple ascending doses (MADs; part 2) of Compound A HBr in healthy participants. The study also assessed whether there were sex (part 3) and age-related (part 4) effects on the PK of a single dose of Compound A HBr. […]
Observable: Tmax (h)
Please give a number only; it is taken to be in h.

Task: Annotate the compound CC(=O)N[C@H]1CC[C@H](NC(=O)CN2CCN(c3nncc(-c4ccc(C)cc4)n3)CC2)CC1 [Compound A HBr] with its measured Tmax.
Result: 1.25

---

# Target system: human CYP11B2 (hCYP11B2) (Homo sapiens)
# Sequence (P19099 25-503): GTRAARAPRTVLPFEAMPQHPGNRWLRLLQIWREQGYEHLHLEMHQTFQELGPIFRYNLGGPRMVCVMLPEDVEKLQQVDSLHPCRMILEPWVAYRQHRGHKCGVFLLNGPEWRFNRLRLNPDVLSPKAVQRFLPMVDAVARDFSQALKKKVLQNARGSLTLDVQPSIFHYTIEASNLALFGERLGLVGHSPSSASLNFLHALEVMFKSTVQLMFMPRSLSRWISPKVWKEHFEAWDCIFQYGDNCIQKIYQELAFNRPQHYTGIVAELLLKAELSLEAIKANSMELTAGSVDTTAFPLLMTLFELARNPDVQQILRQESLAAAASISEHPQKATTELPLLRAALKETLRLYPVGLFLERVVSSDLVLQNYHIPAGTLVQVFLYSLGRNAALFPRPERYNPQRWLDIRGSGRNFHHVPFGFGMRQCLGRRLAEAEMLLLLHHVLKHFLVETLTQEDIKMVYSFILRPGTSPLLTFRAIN
Observable: pKi
# log scale: pKi equals minus log10 of the concentration in mol/L

Task: Provide only the value of recorded pKi for CC(=O)N[C@H]1CC[C@H](NC(=O)CN2CCN(c3nncc(-c4ccc(C)cc4)n3)CC2)CC1
Result: 8.90

---

# Procedure text: 13-week repeat-dose oral toxicology study in monkeys
# Type: in vivo, cynomolgus monkey
# Condition set: cynomolgus monkey, in vivo, oral, female monkeys
Observable: NOAEL at 13 weeks (mg/kg/day)
Answer format: numeric, mg/kg/day implied, no suffix.

Task: Item CC(=O)N[C@H]1CC[C@H](NC(=O)CN2CCN(c3nncc(-c4ccc(C)cc4)n3)CC2)CC1 : provide NOAEL at 13 weeks
Result: 10

---

# Procedure text: Phase 1 part 1 single ascending dose: pharmacokinetics
# Type: in vivo, human
# Condition set: male, human, plasma, oral; single 10 mg, fasted; read-out: Tmax, median and range
Observable: Tmax (h)
Output spec: scalar in h, unitless text.

Task: Report Tmax, nothing else, for this molecule: CC(=O)N[C@H]1CC[C@H](NC(=O)CN2CCN(c3nncc(-c4ccc(C)cc4)n3)CC2)CC1 [Compound A HBr]
Result: 1.25

---

# Procedure text: 13-week repeat-dose oral toxicology study in rats
# Format: in vivo, rat
# Condition set: both sexes, Sprague Dawley, rat, in vivo, oral, 13-week, read-out: no observed adverse effect level (NOAEL)
Observable: NOAEL at 13 weeks (mg/kg/day)
Dear colleague, please return just the value in mg/kg/day, with no unit written.

Task: Quick one: give measured NOAEL at 13 weeks for CC(=O)N[C@H]1CC[C@H](NC(=O)CN2CCN(c3nncc(-c4ccc(C)cc4)n3)CC2)CC1
Result: 50

---

# Procedure text: Phase 1 part 1 single ascending dose: pharmacokinetics
# Assay type: in vivo, human
# Condition set: male, human, plasma, oral; single 800 mg, fasted; read-out: T 1/2, mean (SD) (converted)
Observable: half-life (h)
Number in h, nothing else.

Task: Could you please provide reported half-life for CC(=O)N[C@H]1CC[C@H](NC(=O)CN2CCN(c3nncc(-c4ccc(C)cc4)n3)CC2)CC1 [Compound A HBr] ? Thanks!
Result: 11

---

# Procedure text: Phase 1 part 2 multiple ascending dose: pharmacokinetics
# Type: in vivo, human
# Condition set: male, human, plasma, oral; 360 mg once daily, Day 1, fed; read-out: T 1/2, mean (SD) (converted)
Observable: half-life

Task: Identify the reported half-life for the following entry. CC(=O)N[C@H]1CC[C@H](NC(=O)CN2CCN(c3nncc(-c4ccc(C)cc4)n3)CC2)CC1
Result: 240 min

---

# Procedure text: Phase 1 part 2 multiple ascending dose: pharmacokinetics
# Type: in vivo, human
# Condition set: male, human, plasma, oral; 120 mg once daily, Day 1, fed; read-out: T 1/2, mean (SD) (converted)
Observable: half-life
Value and unit, in that order.

Task: For the compound CC(=O)N[C@H]1CC[C@H](NC(=O)CN2CCN(c3nncc(-c4ccc(C)cc4)n3)CC2)CC1 , report half-life.
Result: 4 h

---

# Procedure text: 13-week repeat-dose oral toxicology study in monkeys
# Format: in vivo, cynomolgus monkey
# Condition set: cynomolgus monkey, in vivo, oral, male monkeys
Observable: NOAEL at 13 weeks (mg/kg/day)
Form entry: value (mg/kg/day) — number only.

Task: Determine its reported NOAEL at 13 weeks: CC(=O)N[C@H]1CC[C@H](NC(=O)CN2CCN(c3nncc(-c4ccc(C)cc4)n3)CC2)CC1 [Compound A]
Result: 30

---

# Procedure text: Phase 1 part 1 single ascending dose: pharmacokinetics
# Type: in vivo, human
# Condition set: male, human, plasma, oral; single 5 mg, fasted; read-out: T 1/2, mean (SD) (converted)
Observable: half-life
Remember to follow the number with its unit.

Task: Give half-life for the following compound: CC(=O)N[C@H]1CC[C@H](NC(=O)CN2CCN(c3nncc(-c4ccc(C)cc4)n3)CC2)CC1
Result: 8 h

---

# Procedure text: Phase 1 part 2 multiple ascending dose: pharmacokinetics
# Assay type: in vivo, human
# Condition set: male, human, plasma, oral; 40 mg once daily, Day 1, fed; read-out: T 1/2, mean (SD) (converted)
Observable: half-life (h)
Lab book: enter the figure in h, no units written.

Task: Quick one: give measured half-life for CC(=O)N[C@H]1CC[C@H](NC(=O)CN2CCN(c3nncc(-c4ccc(C)cc4)n3)CC2)CC1
Result: 5

---

# Target system: hERG channel (Homo sapiens)
# Sequence (Q12809 whole entry): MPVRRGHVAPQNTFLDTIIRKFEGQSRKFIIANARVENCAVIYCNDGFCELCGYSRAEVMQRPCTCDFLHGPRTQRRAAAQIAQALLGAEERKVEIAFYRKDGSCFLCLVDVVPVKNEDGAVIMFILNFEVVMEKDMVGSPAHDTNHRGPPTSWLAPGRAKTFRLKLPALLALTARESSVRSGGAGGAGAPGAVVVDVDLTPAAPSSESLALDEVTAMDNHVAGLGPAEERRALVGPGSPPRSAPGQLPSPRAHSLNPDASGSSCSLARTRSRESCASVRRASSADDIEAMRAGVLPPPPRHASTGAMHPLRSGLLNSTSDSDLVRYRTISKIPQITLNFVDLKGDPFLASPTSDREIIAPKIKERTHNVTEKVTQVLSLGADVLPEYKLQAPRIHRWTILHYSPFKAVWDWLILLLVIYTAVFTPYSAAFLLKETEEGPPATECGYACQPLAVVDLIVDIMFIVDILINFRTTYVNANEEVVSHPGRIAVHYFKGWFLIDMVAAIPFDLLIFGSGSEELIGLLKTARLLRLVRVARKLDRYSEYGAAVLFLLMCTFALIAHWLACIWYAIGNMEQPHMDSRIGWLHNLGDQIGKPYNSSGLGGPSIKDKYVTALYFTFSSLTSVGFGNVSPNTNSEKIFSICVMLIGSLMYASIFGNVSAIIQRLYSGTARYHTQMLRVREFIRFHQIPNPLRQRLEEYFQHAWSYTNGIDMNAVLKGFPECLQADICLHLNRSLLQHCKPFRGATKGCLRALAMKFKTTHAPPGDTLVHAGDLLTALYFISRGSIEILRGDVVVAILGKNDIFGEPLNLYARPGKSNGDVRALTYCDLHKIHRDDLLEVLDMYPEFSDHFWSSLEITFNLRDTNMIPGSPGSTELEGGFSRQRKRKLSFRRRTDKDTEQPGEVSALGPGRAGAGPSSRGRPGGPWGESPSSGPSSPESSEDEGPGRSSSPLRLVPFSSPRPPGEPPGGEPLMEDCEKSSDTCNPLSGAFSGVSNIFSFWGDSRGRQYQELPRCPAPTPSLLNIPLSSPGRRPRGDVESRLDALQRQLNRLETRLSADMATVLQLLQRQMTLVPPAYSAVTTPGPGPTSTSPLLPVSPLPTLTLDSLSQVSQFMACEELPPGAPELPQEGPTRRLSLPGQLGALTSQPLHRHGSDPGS
# Procedure text: Effects on hERG current, whole-cell patch-clamp in HEK293 cells
pIC50: −log10 of the molar value.
Observable: pIC50

Task: Name the recorded pIC50 of the molecule listed here: CC(=O)N[C@H]1CC[C@H](NC(=O)CN2CCN(c3nncc(-c4ccc(C)cc4)n3)CC2)CC1
Result: < 4.52

---

# Procedure text: Phase 1 part 1 single ascending dose: pharmacokinetics
# Format: in vivo, human
# Condition set: male, human, plasma, oral; single 10 mg, fasted; read-out: T 1/2, mean (SD) (converted)
Observable: half-life (h)
Only the number, expressed in h, is required.

Task: Dear colleague, please send me the reported half-life for CC(=O)N[C@H]1CC[C@H](NC(=O)CN2CCN(c3nncc(-c4ccc(C)cc4)n3)CC2)CC1 when you can.
Result: 8

---

# Target system: 46 targets in receptor binding and enzyme inhibition studies
# Procedure text: Pan-receptor screening
# Condition set: any of 46 targets; read-out: IC50 for off-target receptors or enzymes
Observable: IC50

Task: Complete the entry with IC50 for CC(=O)N[C@H]1CC[C@H](NC(=O)CN2CCN(c3nncc(-c4ccc(C)cc4)n3)CC2)CC1 [Compound A]
Result: > 10 µM

---

# Target system: human CYP 11B1 (hCYP11B1) (Homo sapiens, UniProt P15538)
# Sequence (P15538 25-503): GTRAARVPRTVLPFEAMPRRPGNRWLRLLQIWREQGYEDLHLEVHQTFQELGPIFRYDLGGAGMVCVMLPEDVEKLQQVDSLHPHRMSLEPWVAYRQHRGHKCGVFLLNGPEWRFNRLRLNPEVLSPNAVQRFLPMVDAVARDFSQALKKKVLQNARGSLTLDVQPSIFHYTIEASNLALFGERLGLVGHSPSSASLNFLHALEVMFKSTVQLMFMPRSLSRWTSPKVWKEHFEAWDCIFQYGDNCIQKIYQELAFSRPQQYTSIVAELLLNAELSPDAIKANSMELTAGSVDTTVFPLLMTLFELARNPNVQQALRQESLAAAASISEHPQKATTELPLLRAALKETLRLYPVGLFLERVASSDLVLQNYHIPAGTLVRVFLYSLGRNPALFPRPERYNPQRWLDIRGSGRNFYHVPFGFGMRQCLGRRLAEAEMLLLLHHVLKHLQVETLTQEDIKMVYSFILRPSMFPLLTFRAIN
Observable: Ki (nM)
All answers are understood in nM, so give the number only.

Task: Given the molecule CC(=O)N[C@H]1CC[C@H](NC(=O)CN2CCN(c3nncc(-c4ccc(C)cc4)n3)CC2)CC1 , write its reported Ki.
Result: 475

---

# Procedure text: Phase 1 part 1 single ascending dose: pharmacokinetics
# Type: in vivo, human
# Condition set: male, human, plasma, oral; single 400 mg, fasted; read-out: Tmax, median and range
Observable: Tmax (h)
The reply should be a number in h, with the unit left off.

Task: Dear colleague, please send me the reported Tmax for CC(=O)N[C@H]1CC[C@H](NC(=O)CN2CCN(c3nncc(-c4ccc(C)cc4)n3)CC2)CC1 when you can.
Result: 1.25

---

# Procedure text: Phase 1 part 1 single ascending dose: pharmacokinetics
# Format: in vivo, human
# Condition set: male, human, plasma, oral; single doses 5 to 800 mg; read-out: Median Tmax values
# Procedure: A 4-part, Phase 1 randomized, double-blind, placebo-controlled, first-in-human study was performed to determine the safety, tolerability, PK, and PD of single ascending doses (SADs; part 1) and multiple ascending doses (MADs; part 2) of Compound A HBr in healthy participants. The study also assessed whether there were sex (part 3) and age-related (part 4) effects on the PK of a single dose of Compound A HBr. […]
Observable: Tmax

Task: For CC(=O)N[C@H]1CC[C@H](NC(=O)CN2CCN(c3nncc(-c4ccc(C)cc4)n3)CC2)CC1 [Compound A HBr] , write its Tmax.
Result: 1 to 1.5 h
